Give composite z-score for every item shown.
Assay name: small-molecule microarray binders of probe aWnt5a, primary screen, biochemical, biotinylated probe, 635/667 nm fluorescence (AID 1113);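 further: score merges 667 nm fluorescence intensity with signal-to-noise per printed feature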
Condition description: higher = more signal

Which value of composite z-score has been reported for C=CCC(OC(C)=O)[C@@H]1[C@@H](N(Cc2ccc(-c3cccc(C(F)(F)F)c3)o2)C(=O)Cc2ccc(F)cc2)c2cc(OCCCO)ccc2N1C(=O)c1ccc(-c2ccccc2)cc1 (stereo not given in full) in the records?
-0.154

Which value of composite z-score has been reported for COc1ccc([C@H]2C[C@H]3C(Br)=C[C@]2(OC)C(=O)[C@]32CO2)cc1 in the records?
-0.113

// input: 2 molecules below; output: composite z-score for each
1. CCCC=C(CCC)[C@@H](NC(=O)c1ccc(C(F)(F)F)cc1)c1ccccc1
2. O=C1c2ccccc2[C@](Cc2ccccc2I)(C(=O)NCc2ccccc2)[C@H](c2ccc(CO)cc2)N1Cc1ccccc1C(F)(F)F

[0.0094, -0.148]

Which value of composite z-score has been reported for C[C@@H]1NC(=O)[C@H](Cc2ccccc2)NC(=O)[C@@]23C(=O)N[C@@H](Cc4ccccc4)C2[C@H](C)[C@@]2(C)O[C@H]2C3/C=C/C/C=C\CNC1=O (stereo not given in full) in the records?
-0.124

----------
Assay name: binders of probe aFST on microarray, primary screen, stem cell growth factor project, biochemical, small-molecule microarray, fluorescence 635/667 (AID 1086);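 further: score merges 667 nm fluorescence with signal-to-noise of each printed compound spot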
Condition description: higher = more signal
Parameter measured: composite z-score

Which value of composite z-score has been reported for CO[C@@H]1COC(=O)[C@@H]2CCCN2C(=O)CC=C[C@@H](C)[C@H](OC)COC(=O)[C@@H]2CCCN2C(=O)CC=C[C@H]1C in the records?
-0.0975

Which value of composite z-score has been reported for CCCCCCc1nc(C2CC2)c(C)c2c1[Si](C(C)C)(C(C)C)OC2 in the records?
-0.266

Which value of composite z-score has been reported for C#CCNC(/C=C/c1ccccc1)CO (stereo not drawn) in the records?
0.155

// input: 2 compounds below; output: composite z-score for each
1. CCc1cccc(NC(=O)O[C@H]2[C@H](OC(=O)Nc3ccccc3)[C@@H](OC(=O)Nc3ccccc3)[C@@H](OC)O[C@@H]2CO)c1
2. COCCOC(=O)N1C(=O)[C@@]2(c3cc(C#CCCO)ccc31)[C@H](C(=O)N1CCCCCCC1)[C@H]1C(=O)O[C@H](c3ccccc3)[C@H](c3ccccc3)N1[C@@H]2c1ccc(O)cc1

[0.891, 2.25]

// input: 2 compounds below; output: composite z-score for each
1. COC(=O)C1=C(C)N(Cc2ccccc2)c2c(C(=O)OC)c(C(=O)OC)c(C(=O)OC)c(=O)n2[C@@H]1c1ccccc1
2. C=C(COC)/C(=C/C[C@@H](OC(C)=O)c1cccc(OCCO)c1)c1cc(C(=O)OC)ccc1OC

0.224
0.105

// input: 7 compounds below; output: composite z-score for each
1. COc1ccc(CCNC(=O)[C@@]2(c3ccc([N+](=O)[O-])cc3)CC(=O)N(C(C)C)[C@@H]2c2ccc(CO)cc2)cc1
2. O=C(NCc1ccccc1)c1ccc(Br)cc1[N+](=O)[O-]
3. CCCC=C(CCC)[C@@H](NS(=O)(=O)c1cccc(C(F)(F)F)c1)c1ccc(C(=O)OC)cc1
4. C[N+](C)(C)CCCCNC(=O)[C@@H]1C[C@@H]2C(=O)N3CCC[C@H]3C(=O)N2[C@@H]1c1cccc(OCCO)c1
5. C=CC[C@]1(C(=O)N2CCCCC2)N=C(c2ccc(OCCCO)cc2)O[C@H]1c1ccccc1N=[N+]=[N-]
6. NC(=O)NCC#Cc1ccc2c(c1)[C@]1(C(=O)N2)[C@H](C(=O)N2CCCCCCC2)[C@H]2C(=O)O[C@H](c3ccccc3)[C@H](c3ccccc3)N2[C@@H]1c1ccccc1OCCO
7. NC(=O)[C@H]1[C@@H]2C(=O)O[C@@H](c3ccccc3)[C@@H](c3ccccc3)N2[C@@H](c2ccc(O)cc2)[C@]12C(=O)Nc1ccc(C#CCCO)cc12

[-0.529, 0.514, 2.13, 0.209, 1.87, 3.38, -0.605]

// input: 3 compounds below; output: composite z-score for each
1. Cc1ccc(N2C(=O)c3ccccc3[C@](C)(C(=O)O)[C@@H]2c2ccc(CO)cc2)nc1
2. CCC(=O)[C@]12O[C@@]3([C@@H]4C(=O)OCC[C@@H]41)N(Cc1ccccc1)C(C)=C(C(=O)OC)[C@@H](c1ccccc1)N3C2=O
3. COc1cc(CO)cc(I)c1O[C@H]1C=C(C(=O)NCCO)C[C@@H](NCCc2c[nH]c3ccccc23)[C@@H]1O

1. -0.663
2. -0.348
3. 0.714
